Could you please report measured OD for the items listed next?
target: T1, truncated recombinant form of HBeAg containing nine residues of pre-core and the 150 first residues of HBcAg (hepatitis B virus, UniProt P03146 1-150); test: EIA, support-bound peptide, HBeAg 1.25 ug/ml
T1 construct: domain: nine residues of pre-core;range 1-150; also called hepatitis B virus e antigen
T1 sequence (P03146 1-150): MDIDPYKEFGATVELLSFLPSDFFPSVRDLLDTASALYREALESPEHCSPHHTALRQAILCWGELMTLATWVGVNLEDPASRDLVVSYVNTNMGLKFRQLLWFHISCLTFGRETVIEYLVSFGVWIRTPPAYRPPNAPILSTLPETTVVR
Answers are plain numbers, in OD.

// for each binder in input: emit OD
1. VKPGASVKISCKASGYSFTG (also called Peptide # 25) [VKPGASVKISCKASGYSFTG (SEQ. ID. No. 28)]
2. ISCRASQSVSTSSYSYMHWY [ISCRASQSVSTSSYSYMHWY (SEQ. ID. No. 17)]
3. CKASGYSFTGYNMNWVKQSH (also called Peptide # 26) [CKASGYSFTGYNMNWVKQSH (SEQ. ID. No. 29)]
4. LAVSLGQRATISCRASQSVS [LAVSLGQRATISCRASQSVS (SEQ. ID. No. 16)]

Completion:
0.034
0.056
0.026
0.023

Hey, quick one: what's OD for each of these?
1. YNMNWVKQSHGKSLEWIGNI (also called Peptide # 27) [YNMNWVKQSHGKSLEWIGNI (SEQ. ID. No. 30)]
2. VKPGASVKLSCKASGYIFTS (also called Peptide # 2; Pept. #2) [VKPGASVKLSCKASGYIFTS (SEQ. ID. No. 5)]

Completion:
0.021
0.043
